These measurements were taken from patent US20120010245A1.

- assay-protocol: Solubility studies (saturated solubility, HPLC)
- Assay type: physicochemical
- measurement-conditions: ethanol/water 60:40 w/w co-solvent system, aqueous with cosolvent or surfactant or cyclodextrin, thermodynamic from solid, EtOH:Water 60:40 w/w, n=3; read-out: Saturated solubility, Average concentration ± SD
- Protocol: The saturated solubilities of endoxifen were determined in a mixture of absolute ethanol/water (70:30, w/w) by shaking an excess amount of drug in 1 ml of the co-solvent system for at least 24 hours at room temperature. The concentrations of the saturated solutions were determined by HPLC analysis after appropriate dilution. […] The concentrations of the saturated solutions were determined by HPLC analysis after appropriate dilution. […]
readout-name: solubility (µg/mL)
Answer format: numeric, µg/mL implied, no suffix.

IN: Given the compound `CN(C)CCOc1ccc(/C(=C(/CCCl)c2ccccc2)c2ccccc2)cc1` , write its reported solubility.
OUT: 1050

* * *

- assay-protocol: Solubility studies (saturated solubility, HPLC)
- Assay type: physicochemical
- measurement-conditions: ethanol/water 70:30 w/w co-solvent system, aqueous with cosolvent or surfactant or cyclodextrin, thermodynamic from solid, room temperature; read-out: Solubility in ethanol:water (70:30 w/w)
Structures can show the parent of a compound that is named as a salt.
readout-name: solubility
Kindly report the value followed by its unit.

- molecule: "CC/C(=C(/c1ccc(OCCN(C)C)cc1)c1cccc(O)c1)c1ccccc1 [droloxifene citrate]"
  solubility: "47.5 mg/mL"

IN: Given the molecule CC/C(=C(\c1ccc(O)cc1)c1ccc(OCCNC)cc1)c1ccccc1 [endoxifen, 4-hydroxy-N-desmethyl-tamoxifen] , write its reported solubility.
OUT: 38.7 mg/mL

* * *

- assay-protocol: Solubility studies (saturated solubility, HPLC)
- Assay type: physicochemical
- measurement-conditions: ethanol/water 70:30 w/w co-solvent system, aqueous with cosolvent or surfactant or cyclodextrin, thermodynamic from solid, EtOH:Water 70:30 w/w, n=3; read-out: Saturated solubility, Average concentration ± SD
readout-name: solubility (µg/mL)
Answer format: numeric, µg/mL implied, no suffix.

IN: Given the compound CN(C)CCOc1ccc(/C(=C(/CCCl)c2ccccc2)c2ccccc2)cc1 [toremifene] , write its reported solubility.
OUT: 2730

* * *

- assay-protocol: Solubility studies (saturated solubility, HPLC)
- Format: physicochemical
- measurement-conditions: ethanol/water 50:50 w/w co-solvent system, aqueous with cosolvent or surfactant or cyclodextrin, thermodynamic from solid, EtOH:Water 50:50 w/w, single experiments; read-out: Saturated solubility, Expt 1-3
readout-name: solubility (µg/mL)
Answer format: numeric, µg/mL implied, no suffix.

IN: Given the molecule `CN(C)CCOc1ccc(/C(=C(/CCCl)c2ccccc2)c2ccccc2)cc1` , write its reported solubility.
OUT: 350

* * *

- assay-protocol: Solubility studies (saturated solubility, HPLC)
- Format: physicochemical
- measurement-conditions: ethanol/water 40:60 w/w co-solvent system, aqueous with cosolvent or surfactant or cyclodextrin, thermodynamic from solid, EtOH:Water 40:60 w/w, n=3; read-out: Saturated solubility, Average concentration ± SD
readout-name: solubility (µg/mL)
Answer format: numeric, µg/mL implied, no suffix.

IN: Given the compound `CN(C)CCOc1ccc(/C(=C(/CCCl)c2ccccc2)c2ccccc2)cc1` , write its reported solubility.
OUT: 74.7

* * *

- assay-protocol: Solubility studies (saturated solubility, HPLC)
- Assay type: physicochemical
- measurement-conditions: ethanol/water 40:60 w/w co-solvent system, aqueous with cosolvent or surfactant or cyclodextrin, thermodynamic from solid, EtOH:Water 40:60 w/w, single experiments; read-out: Saturated solubility, Expt 1-3
readout-name: solubility (µg/mL)
Answer format: numeric, µg/mL implied, no suffix.

IN: Given the molecule `CN(C)CCOc1ccc(/C(=C(/CCCl)c2ccccc2)c2ccccc2)cc1` , write its reported solubility.
OUT: 74.8

* * *

- assay-protocol: Solubility studies (saturated solubility, HPLC)
- Type: physicochemical
- measurement-conditions: 3% w/v cetrimide solution, aqueous with cosolvent or surfactant or cyclodextrin, thermodynamic from solid, room temperature, n=2
Counter-ions that a name gives are not always drawn.
readout-name: solubility (µg/mL)
Answer format: numeric, µg/mL implied, no suffix.

IN: Given the compound CC/C(=C(/c1ccc(OCCN(C)C)cc1)c1cccc(O)c1)c1ccccc1 [droloxifene citrate] , write its reported solubility.
OUT: 8900

* * *

- assay-protocol: Solubility studies (saturated solubility, HPLC)
- Assay type: physicochemical
- measurement-conditions: ethanol/water 70:30 w/w co-solvent system, aqueous with cosolvent or surfactant or cyclodextrin, thermodynamic from solid, EtOH:Water 70:30 w/w, single experiments; read-out: Saturated solubility, Expt 1-3
readout-name: solubility (µg/mL)
Answer format: numeric, µg/mL implied, no suffix.

IN: Given the compound `CN(C)CCOc1ccc(/C(=C(/CCCl)c2ccccc2)c2ccccc2)cc1` , write its reported solubility.
OUT: 2860
